biological target: T1, extracellular domain of rhesus monkey BCMA (rhesus monkey, UniProt F7FFA0 1-53); assay: Octet BLI; Fab 200 nM
T1 construct: extracellular domain; also called RhBCMA
T1 sequence (F7FFA0 entry or part of it): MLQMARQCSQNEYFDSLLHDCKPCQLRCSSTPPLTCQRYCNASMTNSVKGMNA
quantity: Kd (nM)
The figure you give is taken to be in nM; do not add the unit.

binder: AB200-(2Vk44)_R2-VH-v75 (Fab, V domains shown, also called AB200_VH2-75_VK2-44) VH: QVQLVQSGAEVKKPGSSVKVSCKASGGTFSNYWIHWVRQAPGQGLEWMGATYRIQSDTYYNQKYKSRVTITADKSTSTAYMELSSLRSEDTAVYYCARGAVYHGYDVIDNWGQGTLVTVSS VL: DIQMTQSPSSLSASVGDRVTITCRASQSISSYINWYQQKPGKAPKLLIYATSNLQIGVPSRFSGSGSGTDFTLTISSLQPEDFATYYCQQYRRLPWSFGQGTKLEIKR
Kd, nM: 5.22
--
binder: AB200-(2Vk44)_R2-VH-v35 (Fab, V domains shown) VH: QVQLVQSGAEVKKPGSSVKVSCKASGGTFSNYWIHWVRQAPGQGLEWMGATYRSHSDTYYAQKYKSRVTITADKSTSTAYMELSSLRSEDTAVYYCARGAIYHGYDVIENWGQGTLVTVSS VL: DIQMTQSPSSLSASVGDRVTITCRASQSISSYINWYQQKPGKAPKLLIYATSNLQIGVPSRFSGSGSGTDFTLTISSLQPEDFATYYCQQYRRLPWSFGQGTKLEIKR
Kd, nM: 52.8

Request: Please report the measured Kd for AB200-(2Vk44)_R2-VH-v58 (Fab, V domains shown) VH: QVQLVQSGAEVKKPGSSVKVSCKASGGTFSNYWIHWVRQAPGQGLEWMGGTYRIHSDTNYNQKFKSRVTITADKSTSTAYMELSSLRSEDTAVYYCARGAIYHGFDVIDNWGQGTLVTVSS VL: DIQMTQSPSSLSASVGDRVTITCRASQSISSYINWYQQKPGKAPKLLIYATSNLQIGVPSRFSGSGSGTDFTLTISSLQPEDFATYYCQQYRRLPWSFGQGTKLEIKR
Result: 52.6

Request: Please report the measured Kd for AB200-(2Vk44)_R2-VH-v14 (Fab, V domains shown) VH: QVQLVQSGAEVKKPGSSVKVSCKASGGSFSNYWIHWVRQAPGQGLEWMGATYRSHSTTYYNEKFKSRVTITADKSTSTAYMELSSLRSEDTAVYYCARGAVYHGYDVIDNWGQGTLVTVSS VL: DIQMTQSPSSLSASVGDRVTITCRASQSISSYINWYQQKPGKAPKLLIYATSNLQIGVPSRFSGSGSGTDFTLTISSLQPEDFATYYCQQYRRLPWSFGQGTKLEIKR
Result: 16.9

Request: Please report the measured Kd for AB200-(2Vk44)_R2-VH-v28 (Fab, V domains shown) VH: QVQLVQSGAEVKKPGSSVKVSCKASGGTFSNYWIHWVRQAPGQGLEWMGATYRSHSTTYYNQKYKSRVTITADKSTSTAYMELSSLRSEDTAVYYCARGAIYHGFDVIDNWGQGTLVTVSS VL: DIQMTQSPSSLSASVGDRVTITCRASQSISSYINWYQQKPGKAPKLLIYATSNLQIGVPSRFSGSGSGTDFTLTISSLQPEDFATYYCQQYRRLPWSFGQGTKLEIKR
Result: 20.9

Recorded values, source patent US20240327535A1.
